assay: phenylbenzoquinone (PBQ) writhing method (analgesia in mice, Sigmund et al); assay type: in vivo; conditions: Mus musculus, po, mice, phenylbenzoquinone writhing, oral route; read-out: Analgesic Tests ED50 PBQ P.O.
metric.name: ED50

Task item: Fill in: ED50 of CC(CN(C)C)C1(O)CCCCC1c1ccc(O)cc1 (stereo not shown) is ___
Reply: > 100 mg/kg

Task item: Same again, this time with CC(=O)OC1(C(C)CN2CCOCC2)CCCCC1c1ccccc1.Cl (stereo not shown)
Reply: 40 mg/kg

Task item: Same again, this time with CNCC(C)C1(O)CCCCC1c1ccccc1.Cl (stereo not shown)
Reply: > 30 mg/kg

###

experiment: phenylbenzoquinone (PBQ) writhing method (analgesia in mice, Sigmund et al); assay type: in vivo; conditions: Mus musculus, sc, mice, phenylbenzoquinone writhing, subcutaneous route; read-out: Analgesic Tests ED50 PBQ S.C.
Structures can show the parent of a compound that is named as a salt.
metric.name: ED50

Sample answers from the record:
COc1ccc(C2CCCCC2(O)C(C)CN(C)C)cc1.Cl (stereo not shown) [Example XVII]	> 30 mg/kg
CC(CN1CCCC1)C1(O)CCCCC1c1ccccc1 (stereo not shown) [Example III]	~30 mg/kg
COc1ccc(C2CCCCC2(OC(C)=O)C(C)CN(C)C)cc1 (stereo not shown) [Example XXV, hydrochloride]	> 30 mg/kg
C=CCN(C)CC(C)C1(OC(C)=O)CCCCC1c1ccccc1 (stereo not shown) [XIII]	~30 mg/kg
CC(=O)OC1(C(C)CN2CCOCC2)CCCCC1c1ccccc1.Cl (stereo not shown) [XIX]	56.2 mg/kg
CC(CN(C)C)C1(O)CCCCC1c1ccc(O)cc1 (stereo not shown) [Example XXX]	> 30 mg/kg
CCOC(=O)C1(c2ccccc2)CCN(C)CC1 [Meperidine, reference compound]	1.7 mg/kg
CN(C)CCC1(O)CCCCC1c1ccccc1 (stereo not shown) [Example XIV]	~30 mg/kg
CC(=O)OC1(C(C)CN2CCCCC2)CCCCC1c1ccccc1.Cl (stereo not shown) [XII]	~30 mg/kg

Task item: Fill in: ED50 of CNCC(C)C1(O)CCCCC1c1ccccc1.Cl (stereo not shown) [Example XXVI] is ___
Reply: > 10 mg/kg

###

assay: phenylbenzoquinone (PBQ) writhing method (analgesia in mice, Sigmund et al); assay type: in vivo; conditions: Mus musculus, po, mice, phenylbenzoquinone writhing, oral route; read-out: Analgesic Tests ED50 PBQ P.O.
metric.name: ED50

Sample answers from the record:
C=CCN(C)CC(C)C1(OC(C)=O)CCCCC1c1ccccc1 (stereo not drawn) [XIII]	~100 mg/kg
CCC(=O)OC1(C(C)CN(C)C)CCCCC1c1ccccc1 (single isomer, unassigned) [Example I (a)]	100 mg/kg
CC(N)C1(O)CCCCC1c1ccccc1.Cl (stereo not drawn) [Example XXIII]	> 100 mg/kg
COc1ccc(C2CCCCC2(OC(C)=O)C(C)CN(C)C)cc1OC.Cl (stereo not drawn) [XXXIII]	> 100 mg/kg

Task item: Fill in: ED50 of CC(=O)OC1(C(C)CN2CCCCC2)CCCCC1c1ccccc1.Cl (stereo not drawn) [XII] is ___
Reply: ~60 mg/kg

Task item: Same again, this time with CN(C)CCC1(O)CCCCC1c1ccccc1 (stereo not drawn) [Example XIV]
Reply: > 100 mg/kg

Task item: Same again, this time with CC(N(C)C)C1(O)CCCCC1c1ccccc1.Cl (stereo not drawn) [Example XXVII]
Reply: > 100 mg/kg

Task item: Same again, this time with CC(=O)OC1(C(C)CN2CCN(c3ccccc3)CC2)CCCCC1c1ccccc1.Cl (stereo not drawn) [Example XXI]
Reply: 5.9 mg/kg

Task item: Same again, this time with CC(=O)OC1(C(C)CN2CCCC2)CCCCC1c1ccccc1.O=S(=O)(O)O (stereo not drawn) [Example XXII]
Reply: > 30 mg/kg
